# test: qHTS for Inhibitors of human tyrosyl-DNA phosphodiesterase 1 (TDP1): qHTS in cells in absence of CPT; also: nearly all actives have a fitted effect of over 55% in size
# measurement.conditions: DT40 Tdp1-/- hTDP1 cells, no CPT, ATP luminescence, 48 h
# Description: Human tyrosyl-DNA phosphodiesterase 1 (TDP1) is a novel repair gene, and we propose to use it as a new target for anticancer drug development. […] For the primary screen, Tdp1-/-;hTDP1 cells will be exposed to small molecules in the presence or absence of CPT, and their growth kinetics will be evaluated after 48 hours by measuring ATP activity. […] The hit compounds will then be evaluated in the presence or absence of CPT using Tdp1-/- cells. […]
Among all 420,000 compounds or so, about 64,000 (15%) were called active. About 27% were inconclusive and are not listed. Calls follow the shape of the dose curve; as a rule, active = well fitted inhibition curve with a large enough effect; inconclusive = small, poorly fitted or top-dose-only effect; inactive = flat fitted curve, though single readings scatter. The list is a sample of the results.
Outcome (select one): active, inactive

# example entries with known answers
Q: Record request — test call for O=C(Cc1ccccc1F)NC1CCSc2ccccc21 (stereo unspecified)
A: inactive

Q: Entry `Cc1cccc(NS(=O)(=O)c2cc(Cl)ccc2Cl)n1` : call = ?
A: inactive

Q: Name the outcome recorded for `O=[N+]([O-])c1cc2ccccc2nc1-c1ccccc1` in the assay.
A: inactive

Q: # fetch the recorded call for CCC(C(=O)NC1CCCCC1)N(C(=O)c1snc(C(N)=O)c1N)c1ccc(OC)cc1OC (stereo unspecified) here
A: active

Q: // return assay outcome for `COc1ccccc1CNc1ncncc1-c1cccnc1`
A: inactive

Q: So what was the verdict on `COc1ccccc1Oc1nc(-c2cccnc2)nc2ccccc12` in this test?
A: active

More entries:
Q: Status in this test for `Cc1ccc2c(O)c(Cc3ccccc3)c(=O)[nH]c2n1` ?
A: inactive

Q: # outcome recorded in this test, key = CCN(CC(=O)NC1CCS(=O)(=O)C1)c1nc(-c2cccnc2)nc2ccccc12 (stereo unspecified)
A: inactive

Q: For `O=[N+]([O-])c1ccc(F)cc1Oc1nc(-c2cccnc2)nc2ccccc12` , what call appears in the results of this test?
A: active

Q: Identify the outcome logged in this assay for the compound shown: `COc1ccccc1CCNC(=O)CSc1nnc2ccc(-c3cccnc3)nn12`
A: inactive

Q: What call does the record list for CCc1ccc(NC2Nc3cc(C)nn3S2)cc1 (stereo unspecified) ?
A: inactive

###

# test: qHTS for Inhibitors of human tyrosyl-DNA phosphodiesterase 1 (TDP1): qHTS in cells in absence of CPT; also: nearly all actives have a fitted effect of over 55% in size
# measurement.conditions: DT40 Tdp1-/- hTDP1 cells, no CPT, ATP luminescence, 48 h
Screen size: about 420,000 compounds; about 64,000 (15%) were called active. About 27% were inconclusive and are not listed. The call rests on the fitted dose curve; in most records, active means well fitted inhibition curve with a large enough effect; inconclusive means small, poorly fitted or top-dose-only effect; inactive means flat fitted curve, though single readings scatter. These entries were drawn from the full list.
Permitted responses: yes for active, no for inactive

Q: Hi, sorry to bother you, what did the test record for `CCCc1nn2c(=O)cc(CSCC(=O)Nc3cccc(C)c3)nc2s1` ?
A: no

Q: # fetch the recorded call for `Cc1c(Cl)cccc1NC(=O)CSc1ccc(-c2cccnc2)nn1` here
A: no

Q: // outcome(item) with item = `Cc1ccc(NC(=O)O/N=C/c2cccc([N+](=O)[O-])c2)cc1`
A: no

Q: I'd appreciate the recorded outcome for `CCOc1ccc(CCN2C(=O)c3cccnc3C2=O)cc1OCC` from this test.
A: no

Q: Call for entry `CC1CCN(c2ccc([N+](=O)[O-])c(SCCO)c2)CC1` :
A: yes

Q: Record request — test call for `CC(C)(C)c1ccc(C(=O)NNC(=O)Cc2ccccc2)cc1`
A: no

Q: Could you please tell me the result logged for `COC(=O)c1ccc(COc2ccc(/C=N/NC(=O)C(=O)Nc3ccc(OC)cc3)cc2OC)o1` in this assay?
A: no

###

# test: qHTS for Inhibitors of human tyrosyl-DNA phosphodiesterase 1 (TDP1): qHTS in cells in absence of CPT; also: nearly all actives have a fitted effect of over 55% in size
# measurement.conditions: DT40 Tdp1-/- hTDP1 cells, no CPT, ATP luminescence, 48 h
Among all 420,000 compounds or so, about 64,000 (15%) were called active. Another 27% or so got no clear call; they are omitted. Calls follow the shape of the dose curve; as a rule, active = well fitted inhibition curve with a large enough effect; inconclusive = small, poorly fitted or top-dose-only effect; inactive = flat fitted curve, though single readings scatter. The list is a sample of the results.
Pick from 1 (yes) (active), 0 (no) (inactive) when you respond.

Answered cases to consult:
Q: Could you please tell me the result logged for `COC(=O)C[C@H]1C[C@@H]2c3cc(N(C)C)ccc3O[C@@H]2[C@H](CO)O1` in this assay?
A: 0 (no)

Q: So what was the verdict on `O=C(CCSc1ccccc1)N1CCN(c2ccccc2F)CC1` in this test?
A: 0 (no)

Q: Just curious, what result did `CC1CCN(C(=O)C2CCN(S(=O)(=O)N3CCC4(CC3)OCCO4)CC2)CC1` get here?
A: 0 (no)

Q: So what was the verdict on `Cc1ccc(SCC(=O)c2sc(-c3ccccc3)nc2C)cc1` in this test?
A: 0 (no)

Q: In this assay, the call recorded for `CNC(=O)c1csc(-c2ccccc2)n1` was what?
A: 0 (no)

---
Q: Tell me the recorded outcome of this test for `Cc1ccc(S(=O)(=O)NC(=O)Nc2nc(-c3ccc(F)c(F)c3)cs2)cc1` .
A: 0 (no)

Q: Could you check what this test reported for `Fc1ccc(-c2csc(-c3ccc(C4SCCS4)cc3)n2)cc1F` ?
A: 0 (no)

Q: Please let me know the test result on file for O=C(c1cccc(S(=O)(=O)N2CCCC2)c1)N(Cc1ccco1)C1CCS(=O)(=O)C1 (centres undefined) .
A: 0 (no)

Q: Fill in: this test's call for `O=C(CCc1ccccc1F)N1CCN(c2ccccc2)CC1` is ___
A: 0 (no)

Q: Kindly provide the recorded test outcome for the following compound: `COc1cc(C(=O)Nc2ccc(OCc3cc(=O)n4ccc(C)cc4n3)cc2)cc(OC)c1OC`
A: 0 (no)

Q: Which outcome was entered for the compound CCc1cc(CNC(=O)CC2C(=O)NCCN2CC2CCCCC2)on1 (centres undefined) in this test?
A: 0 (no)

Q: Field: outcome | Entry: `CSc1cccc(NC(=S)N(Cc2ccccc2)Cc2ccccn2)c1`
A: 1 (yes)

Q: Tell me the assay call for `COc1ccc(-c2csc(Nc3cccc(C)n3)n2)cc1OC` please.
A: 1 (yes)

###

# test: qHTS for Inhibitors of human tyrosyl-DNA phosphodiesterase 1 (TDP1): qHTS in cells in absence of CPT; also: nearly all actives have a fitted effect of over 55% in size
# measurement.conditions: DT40 Tdp1-/- hTDP1 cells, no CPT, ATP luminescence, 48 h
In all, about 420,000 compounds went through this assay and about 64,000 (15%) were called active. Inconclusive results (about 27%) are left out. Calls come from the whole dose curve; as a rule, active = well fitted inhibition curve with a large enough effect; inconclusive = small, poorly fitted or top-dose-only effect; inactive = flat fitted curve, though single readings scatter. Only a sample is shown.
Your response should consist of one outcome taken from active, inactive

Answered cases to consult:
Q: Fill in: this test's call for `CSc1nc(-c2ccc(F)cc2)nc2c1Cc1c(CO)cnc(C)c1O2` is ___
A: inactive

Q: GET /call?item= `COc1ccc(C(=O)n2nc(-c3ccc(C)cc3)nc2N)cc1OC` returns the recorded outcome of this test.
A: active

Q: Write down the call the test reported for this compound. Item: `O=S(=O)(NCCCN1CCOCC1)c1ccc(F)c(Cl)c1`
A: inactive

---
Q: # lookup: test call for Cc1ccc2c(c1)C1C[N+](C)(CC(=O)c3ccccc3)CCC1N2C(=O)c1ccccc1Cl (stereo unspecified)
A: inactive

Q: Assay outcome for `COc1ccc(CC(=O)n2nc(-c3cccnc3)nc2N)cc1` : what was it?
A: inactive

Q: State the result this test recorded for CN1CCNC(=O)C1CC(=O)N1CC=C(c2ccc(F)cc2)CC1 (stereo unspecified) .
A: inactive

###

# test: qHTS for Inhibitors of human tyrosyl-DNA phosphodiesterase 1 (TDP1): qHTS in cells in absence of CPT; also: nearly all actives have a fitted effect of over 55% in size; also: potency is read from the fitted curve at half-maximal effect
# measurement.conditions: DT40 Tdp1-/- hTDP1 cells, no CPT, ATP luminescence, 48 h
The whole screen tested about 420,000 compounds, of which about 64,000 (15%) were called active. Not shown: some 27% with an inconclusive outcome. A selection follows.
recorded.metric: Potency

Recorded Potency, per entry:
The recorded Potency for entry `c1ccc(-c2cc(-c3nnc4sc(-c5ccccn5)nn34)[nH]n2)cc1` equals 13 µM (active)

Lab note: `O=S(=O)(c1cccc(-c2cn3ccccc3n2)c1)N1CCCC1` gave Potency of inactive

Notebook: `O=S(=O)(c1cccc(-c2nnc3n2CCCCC3)c1)N1CCOCC1` , Potency read as inactive

Briefly, Potency measured for `CC(C)Cc1nnc(NC(=O)CCC(=O)Nc2ccc3cn[nH]c3c2)s1` : inactive

Kindly consider the entry below.
# Potency of `COc1ccc(CCC(=O)OCC(=O)Nc2ccc(C)c(S(=O)(=O)N(C)C)c2)cc1` = inactive

###

# test: qHTS for Inhibitors of human tyrosyl-DNA phosphodiesterase 1 (TDP1): qHTS in cells in absence of CPT; also: nearly all actives have a fitted effect of over 55% in size
# measurement.conditions: DT40 Tdp1-/- hTDP1 cells, no CPT, ATP luminescence, 48 h
In all, about 420,000 compounds went through this assay and about 64,000 (15%) were called active. Not shown: some 27% with an inconclusive outcome. Calls follow the shape of the dose curve; as a rule, active = well fitted inhibition curve with a large enough effect; inconclusive = small, poorly fitted or top-dose-only effect; inactive = flat fitted curve, though single readings scatter. A selection follows.
Bench note: report the call from true for active, false for inactive

Q: Given `COc1cc(CN2CCC(C(N)=O)CC2)ccc1OCc1ccccc1` , state the outcome it received in this test.
A: false

More entries:
Q: Please let me know the test result on file for COC(=O)C1CCCCN1C(=O)c1ccc(OC2CCN(C(C)=O)CC2)c(OC)c1 (stereo not drawn) .
A: false

Q: Just curious, what result did `CCN(CC(=O)NC(C)C)C(=O)c1cc(S(=O)(=O)N2CCCCC2)ccc1N1CCCCC1` get here?
A: false

Q: # lookup: test call for `CCn1c2ccccc2c2nnc(SCC(=O)O)nc21`
A: false

Q: Recorded test call requested for O=C(NC12CC3CC(CC(C3)C1)C2)N1CCCC(CO)C1 (stereo not drawn)
A: false
